pKi: −log10 of the molar value.
Recorded pKi for molecules tested on Coagulation factor IX (Homo sapiens), drawn from a number of studies.

A selection of reference data follows.
MOLECULE	STUDY_TARGET	pKi
CC(C)(C)S(=O)(=O)c1ccc2cc1CNC(=O)C(Nc1ccc3c(N)nccc3c1)c1ccc(cc1)CCCC(=O)N2 (racemic)	Coagulation factor IX (Homo sapiens)	< 4.46
CC[C@H](C)[C@H](NS(=O)(=O)Cc1ccccc1C(=O)O)C(=O)N[C@@H](CCC(N)=O)C(=O)NCc1ccc(C(=N)N)cc1	Coagulation factor IX (Homo sapiens)	< 4.00
COc1ccc(-n2nc(C#N)c3ncn(-c4ccc(-c5ccccc5CN5CCCC5)cc4)c(=O)c32)cc1	Coagulation factor IX (Homo sapiens)	< 4.82
Cc1cc2nc(CCNC(=O)c3ccc(-n4nccn4)cc3Cl)[nH]c2cc1C	Coagulation factor IX (Homo sapiens)	< 3.84
COC(=O)Nc1ccc2c(c1)NC(=O)CC/C=C/C[C@H](NC(=O)/C=C/c1cc(Cl)ccc1-n1cnnn1)c1nc-2c[nH]1	Coagulation factor IX (Homo sapiens)	< 4.57

For every item below, please supply its pKi.
1. CS(=O)(=O)c1ccc2nc(NC(=O)c3ccc(CNC(=O)C(Cc4ccccc4)c4c[nH]c5ccc(C(=N)N)cc45)cc3)[nH]c2c1 (configuration not stated)
2. CC(C)(C)[C@@H](O)C(=O)N1CCNC[C@H]1C(=O)NCc1cc(Cl)ccc1CN.O=C(O)C(F)(F)F
3. CS(=O)(=O)c1ccccc1-c1ccc(NC(=O)c2cc(C(F)(F)F)nn2-c2ccc3onc(N)c3c2)c(F)c1

[reply]
[6.18, 4.82, 5.46]
